assay: yeast display, Sf9 membrane polyspecificity reagent, FACS + sequencing; frameworks hold sequencing errors
propertyMeasured: polyreactivity (PSR sort gate)

INSERT INTO results (seqstring, recordedvalue) VALUES
  ('QVQLVESGGGLVQAGGSLRLSCAASGFTIWRYAMGWYRQAPGKERELVAAISRGGSTNYADSVKGRFTISRDNAKKTVYLQMNSLKPEDTAGYYCAASVQYRRLKKFYYWGQGTQVTVSS', 'high polyreactivity'),
  ('QVQLVESGGGLVQAGGSLRLSCAASGLTFYQYAMGWYRQAPGKERELVAAISQSAGSTYYADSVKGRFTISRDNAKNTVYLQMNSLKPEDTAVYYCAARVLRLRYDYWGQGTQVTVSS', 'high polyreactivity');

###

assay: yeast display, Sf9 membrane polyspecificity reagent, FACS + sequencing; frameworks hold sequencing errors
propertyMeasured: polyreactivity (PSR sort gate)

As a guide, the following entries are already answered.
INSERT INTO assay_data (seqstring, recordedvalue) VALUES
  ('QVQLVESGGGLVQAGGSLRLSCAASGSIFYSNAMVWYRQAPGKEREFVAAISTSAGRTYYADSVKGRFTISRDNAKNKVYLQLNSLNPEDTEVYYCAAGTNYGKLRIRFDYWGQGTQVTVSS', 'low polyreactivity'),
  ('QVQLVESGGGLVQAGGSLRLSCAASGFTFRSNMGWYRQAPGKEREFVAAITKSGGSTYYADSVKGRFTISRDNAKNTVYLQMNSLKPEDTAVYYCAARARYTTGYRIIYDYWGQGSQVTVSS', 'high polyreactivity'),
  ('QVQLVESGGGLVQAGGSLRLSCAASGRIISHYAMGWYRQAPGKDRELVAAISRSGVSTYYADSVKGRFTISRDNAKNTVYLQMNSLKPEDTAVYYCNRRYDRGPYDYWGQGTQVTVSS', 'low polyreactivity'),
  ('QVQLVESGGGLVQAGGSLRLSCAASGSIFRYYGMGWSRQAPGKERELVAAITWRGSSTYYADSVKGRFTISRDNAKNSVYLQMNSLNPEDTAVYYCAAYSASYGGYDYWGQGTQVTVSS', 'high polyreactivity');

# query: polyreactivity (PSR sort gate) of entry QVQLVESVGGLVQAGGSLRLSCAASGSTFGINAMGWYRQAPGKERELVASITRRGGSTYYADSVKGRFTISRDNAKNTVYLQMNSLKPEDTAVYYCNKTYRYGTPLYDYWGQGTQVTVSS
high polyreactivity

# query: polyreactivity (PSR sort gate) of entry IIQAGGSLRLSCAASGRTFSGYARGWYRQAPGKERELIADITSGGSTYYADSVKGRFTISRDNAKNTVYLQMNSLKPEDTAVYYCSRDDRLAGDYWGQGTQVTVSS
low polyreactivity

# query: polyreactivity (PSR sort gate) of entry QVQLVESGGGLVQAGGSLRLSCASSGSTLRSYAMGWYRQAPGKERELVAAIDWDGGRTYYADSVKGRFTISRDNAKNTVYIQMNSLKPEDTAVYYCNTSAGWSNGKDEGDFYSGFDYWVQGTQVTVSS
low polyreactivity

###

experiment: yeast display, Sf9 membrane polyspecificity reagent, FACS + sequencing; frameworks hold sequencing errors
propertyMeasured: polyreactivity (PSR sort gate)

INSERT INTO results (seqstring, recordedvalue) VALUES
  ('QVQLVESGGGLVQAGGSLRLSCAPSGRTIYHYAMGWYRQAPGKERELVAAITWSGGSTYYADSVKGRVTISRDNAKKTVYLQMNSLKPEDTAVYYWARYPARYGGYYDYDYWGQGTQVTVSS', 'high polyreactivity'),
  ('QVQLVESGGGLVQAGGSLRLSCAASGLTFRPNAMGWYRQAPGKERELVAAISWSGRTYYADSVKGRFTISRDNAKNTVYLQMNILKPEDTAVYYCAARGYSDRYGYWGQGTQVTVSS', 'high polyreactivity'),
  ('QVQLVESGGGLVQAGGSLRLSCAASGSIFHWYVMGWYRQAPGKERELVASISWSSGSTYADSVKGRFTISRDNGKNTVYLQMNSLKPEDTAVYFCNAKTYYPPFGYWGQGTQVTVSS', 'low polyreactivity'),
  ('QVQLVESGGGLVQAGGSLRLSCAASGRTFHRNAMGWYRQAPGKERELVAAITGDGRTNYADSVKGRFTISRDNAKNTVYLQMNSLKPEDTAVYYCNRDNDYYRPGGRPVGIFDYWGQGTQVTVSS', 'low polyreactivity');

Let's switch to this sequence now.
# query: polyreactivity (PSR sort gate) of entry QVQRVESGGGLVQAGGSLRLSCAASGFTFRAYTMGWYRQAPGKDRELVAAITYSGGRRYYADSVKGRFTISRDNAKTTVYLQMNSLNPEDTAVYYCAKRGWALSEYYYWGQGTQVTVSS
high polyreactivity

###

assay: yeast display, Sf9 membrane polyspecificity reagent, FACS + sequencing; frameworks hold sequencing errors
propertyMeasured: polyreactivity (PSR sort gate)

As a guide, the following entries are already answered.
INSERT INTO assay_data (seqstring, propertymeasured, recordedvalue) VALUES
  ('QVQLVESGGGLVQAGGSLRLSCAASGITFEGYAMRWYRQAPGKERELVAAITGSGSTTYYADSVKGRFTISRDNAKNTVYLQMNSLKPEDTAVYYCAADVSYKLYWGQGTQVTVSS', 'polyreactivity (PSR sort gate)', 'low polyreactivity'),
  ('QVQLQGSGGGLAQAGDSLRLSCAASGTIFSEYNNGLVSPGAGQRTRTCCRYWCWGNTYYADSAKGRFTTSRDNANNTVYLQKNSLIPEDTAVYYCAFNRPYPSRHIYRGQGTQVTVSS', 'polyreactivity (PSR sort gate)', 'high polyreactivity'),
  ('QVQLVESGGGLVQAGGSLRLSCAASGITFNRYAMGGYRQAPGKERELVASITSGGRTNYADSVKGRFTISRDNAKNTVYLQMNSLKPEDTAVYYCAVRWVRSRSSSLRKANYYWGQGTIVTVSS', 'polyreactivity (PSR sort gate)', 'high polyreactivity'),
  ('QVQLVESGGGLVQAGGSLRLSCAASGSIFYYYAMGWYRQAPGKEMELVAAIDSGGSTYYAHSVKGRFTISRDNAKNTVYLQMNSLKPEDTAVYYCAADTYWFVYYGYDYWGQGTQVTVSS', 'polyreactivity (PSR sort gate)', 'low polyreactivity'),
  ('QVQLVESGGGLVQAGVSLRLSCAASGSTFTYNAKGWYRQEPGKEMELVAAIRSNGGSTYADSVKGRFTISRDNAKNTVYFQMNSMKPEDTAVYYCAARWRDYYRWGSRGGYGYWGQGTQVTVSS', 'polyreactivity (PSR sort gate)', 'high polyreactivity'),
  ('QVQLVESGGGLVQAGGSLRLSCAASGRIYINNAMGWYRQAPGKDREFVAAITSGGRTYYADSVKGRFTISRDNAKYTVYLQMNSLKPEDTAVYYCAPRYYRQYTRHYGYGYWGQGTQVTVSS', 'polyreactivity (PSR sort gate)', 'high polyreactivity');

# query: polyreactivity (PSR sort gate) of entry QVQRVESGGGLVQAGGSLRLSCAASGRTFVFYDMGWYRQAPGKERELVAAITSSGGRTYYADSVKGRFTISRDNAKNTVYLQMYRVKPEDTAVYYCAAPYYPYKYDSWGQGTQVTVSS
low polyreactivity

# query: polyreactivity (PSR sort gate) of entry QVQLVESGGGLVQAGGSLRLSCAASGSTFVYYAMGRYRQAPGKERELVAAITASGGGTYYADSVKGRFTISRDNAKNTVYLQMNSLKPEDTAVYYCNRGYDYWGQGTQVTVSS
low polyreactivity

# query: polyreactivity (PSR sort gate) of entry QVQLVESGGGLVQAGGSLRLSCAASGSIFGPNAMGWYRQAPGKERELVAAITSGSSTKYADSVKGRFTISRDNATNTVYLQMNSLKPEDTAVYYCAASGTSTWKYGYWGQGSQVTVSS
low polyreactivity

# query: polyreactivity (PSR sort gate) of entry QVQLVESGGGLVQAGGSLRLSCAASGFSFYSYTMGWYRQAPGSVRELVAAISRSGGRTSYADSVKGRFTNSRDNAKNTVYLQMNSLKPDDTAVYYRNAVRLLQTFAEYEYWGQGTQVTVSS
high polyreactivity

# query: polyreactivity (PSR sort gate) of entry QVQIVESGGGLVQAGGILRLSCAASVITFGYYAMGWYSQAPGKEWELVAAISRSGGNTRYADSVKGRFTISRDNAKNTVYLQMNSLTPEDTAVYYCAAYSRYTRTFPLFSGSRYGYWGHGTQVTVSS
high polyreactivity

###

assay: yeast display, Sf9 membrane polyspecificity reagent, FACS + sequencing; frameworks hold sequencing errors
propertyMeasured: polyreactivity (PSR sort gate)

As a guide, the following entries are already answered.
INSERT INTO results (seqstring, recordedvalue) VALUES
  ('QVQLVESGRGLVQAGGSLRLSCAASGRTFVYYAMGWYRQAPGKERELVAAISRSGSTYYADSVKGRFTISRDNAKNTVYLQMNSLKPEDTAVYYCARPGGPDRTSSPYPYPYGYWGQGTQVTVSS', 'low polyreactivity'),
  ('QVQLVESGGGLVQAGGSLRLSCAASGSTFGYYAMGWYRQAPGKEREVVAALDSSGDTYYADSVKGRFTISRDNAKNTVYFQMNSLKPEDTAVYYCAADFWVSSYWGYGYWGQGTQVTVSS', 'high polyreactivity'),
  ('QVQLVESGGGLVQAGGSLRLSCAASGRTFGSYGMGWYRQAPGKERELVAAISRSVGSTYYADSVKGRFTISRDNAKITVYLQMNSLKPEDTAVYYCNTVDRRRYAGHYYWGQGTQVTVSS', 'high polyreactivity'),
  ('QVQLVESGGGLVQAGGSLRLSCAASGRIFGPYAMGWDRQAPGKERELVAAITWRGDRTYYADSVKGRFTISRDNPKNTVYLQMNSLKPEDTAVYYCAARGGRSEYDYWGQGTQVTVSS', 'low polyreactivity'),
  ('QVQLVESGGGLVQAGGSLSLSCAASGRTFGLNVMGWYRQAPGKERELVATISGVGSTNYADSVKWRFTISRDNAKNTVYLQMNSLKPEDTAVYYCAKDPHVGRWWDLYSPYYSWGQGTQVTVSS', 'low polyreactivity');

# query: polyreactivity (PSR sort gate) of entry QVQLVESGAGLVQAGGSLSLSCAASGSIWLYAMGWYRQAPGKEREFVAAITRRGSSTYYADSVKGRFTISRDNAKNPVLLQMNSLKPEDTAVYYCAGVSQYGKWRGDYWGQGTQVTVSS
high polyreactivity

# query: polyreactivity (PSR sort gate) of entry QFQLVESGGGLVQAGGSLRLICAASGIIFKLNAMGWYRQAPGIETELVAAITYRGGTTYYADSVKGRFTISRDNAKNTVYVQMNSLKPEDTAVYYCAVAVTSYSSKKLYYWGQGTQVTVSS
low polyreactivity

# query: polyreactivity (PSR sort gate) of entry QVQLVESGGGLVQAGGSLRLSCAASGRTFVPNAMGWYRQAPGKERELVAAISWSGDSTYYADSVKGRFTISRDNAKNTVYLQMNSLKPEDTAVYYCAARYEFFYKAFDVDSWGQGTQVTVSS
low polyreactivity
